Each entry below carries its reported refractive index.
- Procedure Text: refractive index (Na D-line) (dimensionless)
- Condition Info: 318.15 K; 101.33 kPa; Liquid; Standard Abbe refractometry
± gives the expanded uncertainty stated by the source.

// below: answered compounds
[[record]]
compound = "Cc1cccc(C)c1 [1,3-dimethylbenzene]"
measurement_name = "refractive index"
readout_value = "1.4828 ± 0.0004"

[[record]]
compound = "Cc1ccc(C)cc1 [1,4-dimethylbenzene]"
measurement_name = "refractive index"
readout_value = "1.48126 ± 0.0004"

[[record]]
compound = "Cc1ccccc1 [toluene]"
measurement_name = "refractive index"
readout_value = "1.48171 ± 0.00036"


Shift focus to the following entry.
Q. refractive index lookup needed for Cc1ccccc1C [1,2-dimethylbenzene] , thanks.
A. 1.49124 ± 0.0004

* * *

- Condition Info: 293.15 K; 101.33 kPa; Liquid; Concentric cylinders viscometry
Measurement Name: viscosity (mPa·s)
Respond numerically; units are mPa·s and should not be typed.

[[record]]
compound = "Cc1ccc(C)cc1 [1,4-dimethylbenzene]"
measurement_name = "viscosity"
readout_value = 0.6515

[[record]]
compound = "Cc1ccccc1C [1,2-dimethylbenzene]"
measurement_name = "viscosity"
readout_value = 0.8175


Q. viscosity lookup needed for Cc1cccc(C)c1 [1,3-dimethylbenzene] , thanks.
A. 0.6322

Q. viscosity lookup needed for Cc1ccccc1 [toluene] , thanks.
A. 0.5926

* * *

Each entry below carries its reported mass density.
- Condition Info: 333.15 K; 101.33 kPa; Liquid; Vibrating tube method
Respond numerically; units are kg/m3 and should not be typed.

Q. mass density lookup needed for `Cc1ccccc1` , thanks.
A. 829.25

Q. mass density lookup needed for `Cc1ccc(C)cc1` , thanks.
A. 825.88

Q. mass density lookup needed for `Cc1ccccc1C` , thanks.
A. 845.71

Q. mass density lookup needed for `Cc1cccc(C)c1` , thanks.
A. 829.56
